# Experimental protocol: Aqueous solubility of gemcabene calcium salt forms over 24 hours (HPLC concentration, XRPD form)
# Format: physicochemical
# Test parameters: thermodynamic from solid; water, approximately 25° C.; 24 h; read-out: Conc. (aqueous solubility)
# Procedure: To each vial, approximately 3 mL to 4 mL water were added and the samples were mixed at ambient temperature (approximately 25° C.) for approximately 24 hours. […] From each vial, samples of the slurries were taken after 1, 4, and 24 hours, which were separated by centrifugation. The solids were separated by centrifugation and analyzed by XRPD for solid form and by HPLC for concentration.
Measured quantity: solubility at 24 h (mg/mL)

1. CC(C)(CCCCOCCCCC(C)(C)C(=O)O)C(=O)O.[Ca]    99.5

---

# Experimental protocol: Solubility of gemcabene calcium salt hydrate Crystal Form 1 by solvent addition method
# Type: physicochemical
# Test parameters: organic solvent or mixture, thermodynamic from solid, Ethyl Acetate, heated to 60° C. between additions
Measured quantity: solubility

1. CC(C)(CCCCOCCCCC(C)(C)C(=O)O)C(=O)O.[Ca]    < 10000 µg/mL

---

# Experimental protocol: Solubility of gemcabene calcium salt hydrate Crystal Form 1 by solvent addition method
# Assay type: physicochemical
# Test parameters: organic solvent or mixture, thermodynamic from solid, Acetone, heated to 40° C. between additions
# Description: Approximately 20 mg of gemcabene calcium Crystal Form 1 was added to 5×2 mL vials. The solubility in 5 solvents was tested using a solvent addition method. Solvents included acetone, ethanol, ethyl acetate, t-butyl methyl ether (t-BME) and water. Solvent was added in 5 volume (100 μL) aliquots until either dissolution or 2 mL in total had been added. Between each addition, samples were heated to 60° C. […] Any solids remaining after 24 hours at ambient were analyzed by X-ray powder diffraction (XRPD).
Measured quantity: solubility

1) CC(C)(CCCCOCCCCC(C)(C)C(=O)O)C(=O)O.[Ca]    < 10000 µg/mL

---

# Experimental protocol: Aqueous solubility of gemcabene calcium salt forms over 24 hours (HPLC concentration, XRPD form)
# Assay type: physicochemical
# Test parameters: thermodynamic from solid; water, approximately 25° C.; 1 h; read-out: Conc. (aqueous solubility)
Measured quantity: solubility at 1 h

1. CC(C)(CCCCOCCCCC(C)(C)C(=O)O)C(=O)O.[Ca]    96.2 mg/mL

---

# Experimental protocol: Solubility of gemcabene calcium salt hydrate Crystal Form 1 by solvent addition method
# Format: physicochemical
# Test parameters: organic solvent or mixture, thermodynamic from solid, t-Butyl Methyl Ether (t-BME), heated to 40° C. between additions
Measured quantity: solubility

1) CC(C)(CCCCOCCCCC(C)(C)C(=O)O)C(=O)O.[Ca]    < 10000 µg/mL

---

# Experimental protocol: Solubility of gemcabene calcium salt hydrate Crystal Form 1 by solvent addition method
# Format: physicochemical
# Test parameters: organic solvent or mixture, thermodynamic from solid, Ethanol, heated to 60° C. between additions
Measured quantity: solubility

1. CC(C)(CCCCOCCCCC(C)(C)C(=O)O)C(=O)O.[Ca]    < 10000 µg/mL
